TARGET_OR_SYSTEM: Neu5Ac(a2-6)GalNAc(b1-4)GlcNAc6S
TEST_DESCRIPTION: glycan array binding signal (z-score within array); higher = stronger binding
EXPERIMENTAL_PARAMETERS: glycan notation: IUPAC condensed, linker removed
About 410 targets per protein were measured; listed, in parts, are those with the strongest signals and a random draw of the rest.
RECORDED_METRIC: glycan array binding signal (z-score)

>  <BINDER>
CPA (Cicer arietinum) (protein) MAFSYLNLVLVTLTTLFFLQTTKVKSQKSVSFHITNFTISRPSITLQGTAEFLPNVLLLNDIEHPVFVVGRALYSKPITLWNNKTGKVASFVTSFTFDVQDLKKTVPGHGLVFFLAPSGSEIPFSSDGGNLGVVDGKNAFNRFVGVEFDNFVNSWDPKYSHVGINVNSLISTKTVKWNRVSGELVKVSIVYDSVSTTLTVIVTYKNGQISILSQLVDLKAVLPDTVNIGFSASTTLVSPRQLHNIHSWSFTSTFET

>  <TEST_RESULT>
-0.452

$$$$
>  <BINDER>
Sp8391B-bot-388-20-388 (Bacteroides ovatus) (protein) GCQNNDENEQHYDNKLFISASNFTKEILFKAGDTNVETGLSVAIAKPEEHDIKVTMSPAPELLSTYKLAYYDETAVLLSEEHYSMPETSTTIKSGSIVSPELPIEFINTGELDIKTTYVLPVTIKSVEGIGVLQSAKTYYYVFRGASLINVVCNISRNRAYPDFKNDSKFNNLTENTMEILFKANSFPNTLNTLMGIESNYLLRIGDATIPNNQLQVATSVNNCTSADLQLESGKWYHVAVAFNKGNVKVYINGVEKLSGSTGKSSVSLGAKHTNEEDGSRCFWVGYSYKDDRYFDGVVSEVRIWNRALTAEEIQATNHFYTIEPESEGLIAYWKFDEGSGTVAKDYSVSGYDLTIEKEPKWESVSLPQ

>  <TEST_RESULT>
-0.019

$$$$
>  <BINDER>
Nc3LysM-2 (protein) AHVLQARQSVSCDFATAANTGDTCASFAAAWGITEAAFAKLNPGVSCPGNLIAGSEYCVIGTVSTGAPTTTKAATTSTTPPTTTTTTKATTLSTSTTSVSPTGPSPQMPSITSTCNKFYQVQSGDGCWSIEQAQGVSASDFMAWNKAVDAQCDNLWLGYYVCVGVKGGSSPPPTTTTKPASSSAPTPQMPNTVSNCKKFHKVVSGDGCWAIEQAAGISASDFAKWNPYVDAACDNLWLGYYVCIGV

>  <TEST_RESULT>
-2.04

$$$$
>  <BINDER>
Gal 4 (Mus musculus), P56470 (protein) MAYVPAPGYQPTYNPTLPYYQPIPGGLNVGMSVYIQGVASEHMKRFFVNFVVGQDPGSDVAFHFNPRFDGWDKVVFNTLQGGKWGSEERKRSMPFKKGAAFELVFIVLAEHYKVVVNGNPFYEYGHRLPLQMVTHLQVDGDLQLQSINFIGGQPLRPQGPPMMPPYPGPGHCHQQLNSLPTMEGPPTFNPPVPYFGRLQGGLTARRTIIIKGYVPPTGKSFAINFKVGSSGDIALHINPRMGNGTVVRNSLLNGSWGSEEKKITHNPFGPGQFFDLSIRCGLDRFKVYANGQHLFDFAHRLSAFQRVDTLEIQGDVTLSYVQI

>  <TEST_RESULT>
-0.293

$$$$
